Please respond with reported TGI for every item in the list.
tested on: OVCAR-8 ovarian; test: NCI tumour cell line growth inhibition, 48 h

Recorded result, CN1CC(C(=O)C2C(=O)c3ccccc3C2=O)C(=O)C(=O)C(C(=O)C2C(=O)c3ccccc3C2=O)C1 (stereo unspecified) , TGI: > 100 µM

Lab note: `c1cn2cc(-c3ccc4cn[nH]c4c3)nc(Nc3ccc(N4CCOCC4)cc3)c2n1` gave TGI of 21.8 µM

Memo: `O=c1cc(-c2ccccc2)[nH]n1-c1nc2ccccc2[nH]1` , reported TGI: > 100 µM

response.value for `c1ccc(-n2nnnc2-c2cccc3ccccc23)cc1` (field: TGI) = > 100 µM

According to the records, this compound `Cc1c(C)[n+](=O)c(C)c(C)n1[O-]` displays TGI of > 100 µM

// `C#CC(F)(F)[C@]1(O)CC[C@H]2[C@@H]3CCC4=CC(=O)CCC4=C3[C@@H](c3ccc(C(C)=O)cc3)C[C@@]21C` : TGI value = > 90.6 µM
